The compounds listed here are annotated with their Kass Trypsin.
- system_tested: Bovine trypsin (Bos taurus, UniProt P00760)
- Construct: Bovine trypsin is purchased from Worthington Biochemicals; purchased Worthington Biochemicals, Freehold, N.J
- Sequence (P00760 24-246): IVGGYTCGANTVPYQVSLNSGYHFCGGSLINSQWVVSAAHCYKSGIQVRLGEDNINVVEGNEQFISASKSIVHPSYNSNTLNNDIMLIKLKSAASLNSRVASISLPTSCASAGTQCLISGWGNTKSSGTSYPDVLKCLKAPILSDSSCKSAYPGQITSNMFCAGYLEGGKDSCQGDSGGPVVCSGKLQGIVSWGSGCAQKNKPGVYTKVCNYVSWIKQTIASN
- protocol_notes: Serine protease inhibition (Kass), trypsin
- Type: biochemical
Respond with the figure and its unit, in that order.

Before answering, review these 4 worked examples.
CCS(=O)(=O)N[C@H](Cc1ccccc1)C(=O)N1CCC[C@H]1C(=O)N[C@H](C=O)CCCNC(=N)N.Cl [Example 52]    260 L/mol × 10^6
CC(C)S(=O)(=O)N[C@H](Cc1ccccc1)C(=O)N1CCC[C@H]1C(=O)N[C@H](C=O)CCCNC(=N)N.Cl [Example 55]    260 L/mol × 10^6
CCOC(=O)N[C@](CC)(Cc1ccccc1)C(=O)N1CCC[C@H]1C(=O)N[C@H](C=O)CCCNC(=N)N.Cl [Example 35]    4.9 L/mol × 10^6
CCCCS(=O)(=O)N[C@H](Cc1ccccc1)C(=O)N1CCC[C@H]1C(=O)N[C@H](C=O)CCCNC(=N)N.Cl [Example 54]    230 L/mol × 10^6

## Task Item CCCS(=O)(=O)N[C@H](Cc1ccccc1)C(=O)N1CCC[C@H]1C(=O)N[C@H](C=O)CCCNC(=N)N.Cl [Example 53] has what recorded Kass Trypsin?
## Result 480 L/mol × 10^6

* * *

- system_tested: UniProtKB P00734
- protocol_notes: Thrombin amidase inhibition (Kass), chromogenic substrate
- Format: biochemical
recorded_endpoint: Kass Human Thrombin (L/mol × 10^6)
# unit: L/mol × 10^6 | format: bare number

Before answering, review these 2 worked examples.
CCOC(=O)NC(CC)(Cc1ccccc1)C(=O)N1CCC[C@H]1C(=O)N[C@H](C=O)CCCNC(=N)N.Cl (stereo partly shown)    6.5
Cl.N=C(N)NCCC[C@@H](C=O)NC(=O)[C@@H]1CCCN1C(=O)[C@@H](Cc1ccccc1)NC(=O)Cc1ccccc1    29

## Task Item Cl.Cl.N=C(N)NCCC[C@@H](C=O)NC(=O)[C@@H]1CCCN1C(=O)C1CNC2CCCCC21.O (stereo partly shown) has what recorded Kass Human Thrombin?
## Result 11

## Task Item CCOC(=O)N[C@@H](Cc1ccccc1)C(=O)N1CCC[C@@]1(C)C(=O)N[C@H](C=O)CCCNC(=N)N.Cl has what recorded Kass Human Thrombin?
## Result 5.0

## Task Item CCOC(=O)N[C@H](CC1CCCCC1)C(=O)N1CCC[C@H]1C(=O)N[C@H](C=O)CCCNC(=N)N.Cl has what recorded Kass Human Thrombin?
## Result 360

## Task Item C[C@@]1(C(=O)N[C@H](C=O)CCCNC(=N)N)CCCN1C(=O)[C@@H](Cc1ccccc1)NS(C)(=O)=O.Cl has what recorded Kass Human Thrombin?
## Result 31

## Task Item COc1ccc(OC)c(S(=O)(=O)N[C@H](Cc2ccccc2)C(=O)N2CCC[C@H]2C(=O)N[C@H](C=O)CCCNC(=N)N)c1.Cl has what recorded Kass Human Thrombin?
## Result 200

* * *

The compounds listed here are annotated with their Kass t-PA.
- system_tested: tissue plasminogen activator (t-PA) (Homo sapiens, UniProt P00750)
- Construct: purchased American Diagnostica, Greenwich, Conn
- Sequence (P00750 36-562): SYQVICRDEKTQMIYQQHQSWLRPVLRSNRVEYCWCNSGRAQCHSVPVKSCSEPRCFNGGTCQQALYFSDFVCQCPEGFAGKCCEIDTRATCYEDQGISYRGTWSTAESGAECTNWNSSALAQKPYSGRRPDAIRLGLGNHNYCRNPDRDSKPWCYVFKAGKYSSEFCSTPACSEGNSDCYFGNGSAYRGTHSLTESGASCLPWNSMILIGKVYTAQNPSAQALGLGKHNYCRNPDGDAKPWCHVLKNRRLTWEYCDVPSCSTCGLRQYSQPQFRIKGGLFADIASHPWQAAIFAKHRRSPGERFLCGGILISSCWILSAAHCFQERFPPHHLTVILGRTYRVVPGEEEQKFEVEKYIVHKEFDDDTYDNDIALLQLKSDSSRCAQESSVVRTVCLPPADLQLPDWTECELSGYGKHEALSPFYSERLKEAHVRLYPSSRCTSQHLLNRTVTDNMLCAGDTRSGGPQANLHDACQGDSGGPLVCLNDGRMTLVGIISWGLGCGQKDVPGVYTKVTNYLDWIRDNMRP
- protocol_notes: Serine protease inhibition (Kass), t-PA
- Type: biochemical
Non-standard residues stand in square brackets, D forms with d. Residues, ends and D or L forms follow the SMILES beside them. dCha = N[C@H](CC1CCCCC1)C(=O)O
# unit: L/mol × 10^6 | format: bare number

Before answering, review these 2 worked examples.
CC(=O)N[C@H](CC1CCCCC1)C(=O)N1CCC[C@H]1C(=O)N[C@H](C=O)CCCNC(=N)N.Cl [Example 72] (Ac-[dCha]-Pro-Arg-aldehyde)    0.035
CCS(=O)(=O)N[C@@H](C(=O)N1CCC[C@H]1C(=O)N[C@H](C=O)CCCNC(=N)N)c1ccccc1.Cl    0.34

## Task Enter reported Kass t-PA observed with tissue plasminogen activator (t-PA) (Homo sapiens, UniProt P00750) for CCCCS(=O)(=O)N[C@H](Cc1ccccc1)C(=O)N1CCC[C@H]1C(=O)N[C@H](C=O)CCCNC(=N)N.Cl
## Result 0.83

## Task Enter reported Kass t-PA observed with tissue plasminogen activator (t-PA) (Homo sapiens, UniProt P00750) for Cl.N=C(N)NCCC[C@@H](C=O)NC(=O)[C@@H]1CCCN1C(=O)[C@@H](CC1CCCCC1)NC(=O)c1cc2ccccc2cn1
## Result 0.088

## Task Enter reported Kass t-PA observed with tissue plasminogen activator (t-PA) (Homo sapiens, UniProt P00750) for CCS(=O)(=O)N[C@H](CC1CCCCC1)C(=O)N1CCC[C@H]1C(=O)N[C@H](C=O)CCCNC(=N)N.Cl
## Result 0.73

## Task Enter reported Kass t-PA observed with tissue plasminogen activator (t-PA) (Homo sapiens, UniProt P00750) for Cl.Cl.Cn1c(C(=O)N[C@](C)(Cc2ccccc2)C(=O)N2CCC[C@H]2C(=O)N[C@H](C=O)CCCNC(=N)N)cc2ccccc21
## Result 0.0022

## Task Enter reported Kass t-PA observed with tissue plasminogen activator (t-PA) (Homo sapiens, UniProt P00750) for Cl.N=C(N)NCCC[C@@H](C=O)NC(=O)[C@@H]1CCCN1C(=O)[C@@H](Cc1ccccc1)NS(=O)(=O)c1nccs1
## Result 0.31

## Task Enter reported Kass t-PA observed with tissue plasminogen activator (t-PA) (Homo sapiens, UniProt P00750) for Cl.Cn1c(C(=O)N[C@@](C)(C(=O)N2CC[C@H]2C(=O)N[C@H](C=O)CCCNC(=N)N)c2ccccc2)cc2ccccc21
## Result 0.02

Source: patent US5436229A
